Tested on: MALME-3M melanoma
Experiment: NCI-60 one-dose screen, 48 h (100 = growth as untreated, 0 = no growth, -100 = all killed)
Conditions: 10 µM unless noted
About 83,000 compounds went through this panel and 20% of them were active in at least one assay; those are over-represented in the sample as a whole. The source made the active and inactive calls. Rule for the calls: active = growth percent below 10; inactive = the rest.
QUANTITY NAME: growth

{"COMPOUND": "Cc1cc(C(=O)NN)c(C#N)c(=O)[nH]1", "QUANTITY NAME": "growth", "READING": "103% (inactive)"}
{"COMPOUND": "ON1CCCC1", "QUANTITY NAME": "growth", "READING": "106% (inactive)"}
{"COMPOUND": "Cn1c2ccccc2c2nnc(NCCCCO)nc21", "QUANTITY NAME": "growth", "READING": "98.3% (inactive)"}
{"COMPOUND": "O=C(O)c1cc(I)ccc1O", "QUANTITY NAME": "growth", "READING": "90.3% (inactive)"}
{"COMPOUND": "Cc1ccc[n+](CCC(N)=O)c1", "QUANTITY NAME": "growth", "READING": "79.3% (inactive)"}
{"COMPOUND": "Nc1nc(Cl)cc(Cl)n1", "QUANTITY NAME": "growth", "READING": "90.8% (inactive)"}
{"COMPOUND": "CN(C)c1ccc2c(N(C)C)cc(N(C)C)nc2c1", "QUANTITY NAME": "growth", "READING": "98.4% (inactive)"}
{"COMPOUND": "C=CCN1CCCC1=O", "QUANTITY NAME": "growth", "READING": "96.9% (inactive)"}
{"COMPOUND": "O=C(c1ccccc1O)N1CCCC1", "QUANTITY NAME": "growth", "READING": "104% (inactive)"}
{"COMPOUND": "CCNc1ccc2ccccc2c1N=Nc1ccc(N=Nc2ccccc2)cc1", "QUANTITY NAME": "growth", "READING": "128% (inactive)"}
{"COMPOUND": "O=[N+]([O-])c1c(Cl)ncnc1Cl", "QUANTITY NAME": "growth", "READING": "104% (inactive)"}
{"COMPOUND": "CCOc1ccc(C(=O)NCC(C)C)cc1", "QUANTITY NAME": "growth", "READING": "101% (inactive)"}
{"COMPOUND": "O=[n+]1ccn([O-])c2ccccc21", "QUANTITY NAME": "growth", "READING": "98.3% (inactive)"}
{"COMPOUND": "Nc1cccc2cccc(O)c12", "QUANTITY NAME": "growth", "READING": "75.2% (inactive)"}
{"COMPOUND": "Nc1cc(F)ccc1[N+](=O)[O-]", "QUANTITY NAME": "growth", "READING": "108% (inactive)"}
{"COMPOUND": "CCC12OC(COc3ccccc3)CN1CCN2c1ccccc1 (centres undefined)", "QUANTITY NAME": "growth", "READING": "98.4% [100 µM] (inactive)"}
{"COMPOUND": "ClCc1cccc2c(CCl)cccc12", "QUANTITY NAME": "growth", "READING": "90.6% (inactive)"}
{"COMPOUND": "NC(=O)NCCO", "QUANTITY NAME": "growth", "READING": "97.4% (inactive)"}
{"COMPOUND": "CC(=O)NC(CCc1ccc(Cl)c(Cl)c1)c1cccc(O)c(=O)c1 (centres undefined)", "QUANTITY NAME": "growth", "READING": "-17.9% (active)"}
{"COMPOUND": "CN(C)c1ccc(/C=C/C(=O)c2ccc(NC(N)=O)cc2)cc1", "QUANTITY NAME": "growth", "READING": "82.3% (inactive)"}
{"COMPOUND": "C/C(O)=C(/C=N/C(=S)Nc1ccccc1)C(=O)Nc1ccccc1C", "QUANTITY NAME": "growth", "READING": "89.1% (inactive)"}
{"COMPOUND": "CN1CCCN(C(c2ccccc2)c2ccc(Cl)cc2)CC1 (centres undefined)", "QUANTITY NAME": "growth", "READING": "98.8% (inactive)"}
{"COMPOUND": "Cc1cccnc1NC1OC(=O)c2ccccc21 (centres undefined)", "QUANTITY NAME": "growth", "READING": "93.7% (inactive)"}
{"COMPOUND": "Cc1ccc(S(=O)(=O)Oc2ccc3sc4c(CO)ccc(NCCN(C)C)c4c(=O)c3c2)cc1", "QUANTITY NAME": "growth", "READING": "-89.5% [100 µM] (active)"}
{"COMPOUND": "CCCc1cccc(CCC)c1NC(=O)Nc1cc(Cl)cc(Cl)c1", "QUANTITY NAME": "growth", "READING": "87.5% (inactive)"}
{"COMPOUND": "CC1(C)CCC(C)(C)NC(=S)N1", "QUANTITY NAME": "growth", "READING": "97.3% (inactive)"}
{"COMPOUND": "Nc1ccc(F)c(Cl)c1F", "QUANTITY NAME": "growth", "READING": "107% (inactive)"}
{"COMPOUND": "O=Cc1c(O)c2ccccc2[nH]c1=O", "QUANTITY NAME": "growth", "READING": "139% (inactive)"}
{"COMPOUND": "CCCCCCCCCCC(=O)CCCCCCCCCC", "QUANTITY NAME": "growth", "READING": "99.1% (inactive)"}

Numbers sourced from PubChem BioAssay (NCI).
